// data source = the RNAGym collection of RNA variant scans (doi:10.1038/s41586-018-0170-7)

B1: tRNA (parent)
chain: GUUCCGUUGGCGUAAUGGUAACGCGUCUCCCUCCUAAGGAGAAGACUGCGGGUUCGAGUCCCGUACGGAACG

- Variants of: B1
- protocol summary: yeast fitness, log relative to wild type (ln ratio); higher = fitter; tRNA-Arg(CCU), competitive growth, 37 C, 1 M NaCl
assay readout: yeast fitness (ln)

What the record says about ACUCCUUUGGCGUAAUGGUAACGCGUCUCCCUCCUAAGGAGAAGACUGCGGGUUCGAGUCCCGUAAGGAGUG : yeast fitness (ln) is -0.0113

Summary for this variant, AUUCCGUUGGCGUAAUGGUAACGCGUCUCCCUCCUAAGGAGAAGACUGCGGGUUCGAGUCCCGUACGGAGCG : yeast fitness (ln) is -0.204

The recorded yeast fitness (ln) for GUUCCUUUGGCGUAAUGGUAACGCGUUUCCCUCCUAAGGAGACGACUGCGGGUUCGAGUCCCGUACGGAUCG is -0.309

Note to self: yeast fitness (ln) recorded for GCUCCAUUGGCGUAAUGGUAACGCGUUUCCCUCCUAAGGAGACGAUUGCGGGUUCGAGUCCCGUACGGGAUG was -0.113

Please fill in: yeast fitness (ln) reported for GCUCCGUUGGCGUAAUGGUAACGCGUCUCCCUCCUAAGGAGACGAUUGCGGGUUCGAGUCCCGUAAGGAGUG = -0.0245

Documented yeast fitness (ln) of GGUCCAUUGGCGUAAUGGUAACGCGUUUCCCUCCUAAGGAGAAGACUGCGGGUUCGAGUCCCGUACGGGUUG : -0.383

Noted for GUUCCUUUGGCGUAAUGGUAACGCGUCUCCCUCCUAAGGAGAAGAUUGCGGGUUCGAGUCCCGUAUGGAACG : its yeast fitness (ln) reads -0.0169

variant GGUCCGUUGGCGUAAUGGUAACGCGUCUCCCUCCUAAGGAGACGAUUGCGGGUUCGAGUCCCGUACGGAACG , yeast fitness (ln) observed: -0.0426

Form field yeast fitness (ln), entry AUUCCGUUGGCGUAAUGGUAACGCGUUUCCCUCCUAAGGAGACGACUGCGGGUUCGAGUCCCGUAUGGGGUG : -0.371

Lab book: yeast fitness (ln) of ACUCCGUUGGCGUAAUGGUAACGCGUCUCCCUCCUAAGGAGACGAUUGCGGGUUCGAGUCCCGUAUGGAUCG noted as -0.132

The reported yeast fitness (ln) of the variant GGUCCGUUGGCGUAAUGGUAACGCGUCUCCCUCCUAAGGAGAAGAUUGCGGGUUCGAGUCCCGUAAGGGUUG was -0.34

# variant AUUCCAUUGGCGUAAUGGUAACGCGUCUCCCUCCUAAGGAGACGAUUGCGGGUUCGAGUCCCGUACGGAGUG ; its yeast fitness (ln) = -0.214

# yeast fitness (ln) of AUUCCAUUGGCGUAAUGGUAACGCGUUUCCCUCCUAAGGAGACGAUUGCGGGUUCGAGUCCCGUACGGGGUG = -0.374

# variant AGUCCGUUGGCGUAAUGGUAACGCGUUUCCCUCCUAAGGAGACGAUUGCGGGUUCGAGUCCCGUAAGGGUUG ; its yeast fitness (ln) = -0.456

Reported yeast fitness (ln) for GUUCCUUUGGCGUAAUGGUAACGCGUCUCCCUCCUAAGGAGAAGAUUGCGGGUUCGAGUCCCGUAUGGAGCG was -0.153

yeast fitness (ln) for GGUCCAUUGGCGUAAUGGUAACGCGUUUCCCUCCUAAGGAGAAGACUGCGGGUUCGAGUCCCGUACGGAUCG is -0.283

Looking up AGUCCAUUGGCGUAAUGGUAACGCGUCUCCCUCCUAAGGAGAAGACUGCGGGUUCGAGUCCCGUAUGGAGUG , I see its yeast fitness (ln) listed as -0.578

Given item GCUCCGUUGGCGUAAUGGUAACGCGUUUCCCUCCUAAGGAGAAGAUUGCGGGUUCGAGUCCCGUACGGAAUG , the value recorded as its yeast fitness (ln) is -0.268

Lab note: measured yeast fitness (ln) of GUUCCGUUGGCGUAAUGGUAACGCGUCUCCCUCCUAAGGAGACGACUGCGGGUUCGAGUCCCGUAUGGAUUG was -0.358

Note to self: yeast fitness (ln) recorded for GCUCCAUUGGCGUAAUGGUAACGCGUCUCCCUCCUAAGGAGACGAUUGCGGGUUCGAGUCCCGUAAGGAGCG was -0.123

Item: ACUCCAUUGGCGUAAUGGUAACGCGUCUCCCUCCUAAGGAGACGACUGCGGGUUCGAGUCCCGUAUGGGGUG | yeast fitness (ln): -0.0387

What the record says about GCUCCAUUGGCGUAAUGGUAACGCGUUUCCCUCCUAAGGAGAAGACUGCGGGUUCGAGUCCCGUACGGAUCG : yeast fitness (ln) is -0.0574
